- targetDesc: Gal-1 (Homo sapiens, UniProt P09382)
- Construct: made in house; host or cells: E. coli BL21(DE3)
- Sequence (P09382 whole entry): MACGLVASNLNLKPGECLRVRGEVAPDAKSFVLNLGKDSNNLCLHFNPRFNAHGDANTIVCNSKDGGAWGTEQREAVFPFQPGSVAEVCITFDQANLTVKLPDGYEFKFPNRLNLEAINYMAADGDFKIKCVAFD
- testSummary: Competition pull-down with lactose
- Format: binding
- protocolConditions: H14 library; lactose 10 mM; read-out: Surface mapping KD (apparent), competition
pKd: −log10 of the molar value.
Below, each of the molecules is paired with its reported pKd value.

smilesRepresentation	pKd
CC(C)C[C@@H](CC(=O)N[C@H]1CCCC[C@@H]1C(N)=O)NC(=O)[C@H]1CCCC[C@@H]1NC(=O)[C@H]1CCCC[C@@H]1NC(=O)C[C@H](CO)NC(=O)[C@H]1CCCC[C@@H]1N	3.49
NC(=O)C[C@@H](CC(=O)N[C@H]1CCCC[C@@H]1C(=O)N[C@H]1CCCC[C@@H]1C(=O)N[C@@H](CC(=O)O)CC(=O)N[C@H]1CCCC[C@@H]1C(N)=O)NC(=O)[C@H]1CCCC[C@@H]1N	3.53
CSCC[C@@H](CC(=O)N[C@H]1CCCC[C@@H]1C(=O)N[C@H]1CCCC[C@@H]1C(=O)N[C@@H](CC(N)=O)CC(=O)N[C@H]1CCCC[C@@H]1C(N)=O)NC(=O)[C@H]1CCCC[C@@H]1N	3.31
CC(C)C[C@@H](CC(=O)N[C@H]1CCCC[C@@H]1C(N)=O)NC(=O)[C@H]1CCCC[C@@H]1NC(=O)[C@H]1CCCC[C@@H]1NC(=O)C[C@@H](NC(=O)[C@H]1CCCC[C@@H]1N)[C@@H](C)O	3.58
NC(=O)CC[C@@H](CC(=O)N[C@H]1CCCC[C@@H]1C(N)=O)NC(=O)[C@H]1CCCC[C@@H]1NC(=O)[C@H]1CCCC[C@@H]1NC(=O)C[C@H](CCC(N)=O)NC(=O)[C@H]1CCCC[C@@H]1N	3.33
CC(C)C[C@@H](CC(=O)N[C@H]1CCCC[C@@H]1C(N)=O)NC(=O)[C@H]1CCCC[C@@H]1NC(=O)[C@H]1CCCC[C@@H]1NC(=O)C[C@@H](NC(=O)[C@H]1CCCC[C@@H]1N)C(C)C	3.66
NC(=O)C[C@@H](CC(=O)N[C@H]1CCCC[C@@H]1C(=O)N[C@H]1CCCC[C@@H]1C(=O)N[C@@H](CO)CC(=O)N[C@H]1CCCC[C@@H]1C(N)=O)NC(=O)[C@H]1CCCC[C@@H]1N	3.37
C[C@@H](CC(=O)N[C@H]1CCCC[C@@H]1C(N)=O)NC(=O)[C@H]1CCCC[C@@H]1NC(=O)[C@H]1CCCC[C@@H]1NC(=O)C[C@H](CCC(N)=O)NC(=O)[C@H]1CCCC[C@@H]1N	3.35
NC(=O)CC[C@@H](CC(=O)N[C@H]1CCCC[C@@H]1C(=O)N[C@H]1CCCC[C@@H]1C(=O)N[C@H](CC(=O)N[C@H]1CCCC[C@@H]1C(N)=O)Cc1c[nH]c2ccccc12)NC(=O)[C@H]1CCCC[C@@H]1N	3.74

====

Below, each of the compounds is paired with its reported pKd value.
- targetDesc: S100A4 (Homo sapiens)
- Construct: made in house; host or cells: Escherichia coli BL21(DE3)
- Sequence (P26447 whole entry): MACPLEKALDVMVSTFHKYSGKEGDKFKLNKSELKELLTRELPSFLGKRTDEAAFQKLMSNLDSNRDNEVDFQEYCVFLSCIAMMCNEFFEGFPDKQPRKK
- testSummary: Pull-down assay with immobilized protein and LSM libraries
- Format: binding
- protocolConditions: H12 library; 1:1 binding assumed; read-out: Surface mapping KD (apparent)
pKd: −log10 of the molar value.

compound	pKd
NC(=O)[C@H]1CCC[C@@H]1NC(=O)[C@H]1CCC[C@@H]1NC(=O)C[C@H](Cc1ccccc1)NC(=O)[C@H]1CCC[C@@H]1NC(=O)[C@H]1CCC[C@@H]1NC(=O)C[C@H](Cc1ccccc1)NC(=O)[C@H]1CCC[C@@H]1NC(=O)[C@H]1CCC[C@@H]1N [H12 FF]	3.90
NC(=O)[C@H]1CCC[C@@H]1NC(=O)[C@H]1CCC[C@@H]1NC(=O)C[C@H](Cc1ccccc1)NC(=O)[C@H]1CCC[C@@H]1NC(=O)[C@H]1CCC[C@@H]1NC(=O)C[C@H](Cc1ccc(O)cc1)NC(=O)[C@H]1CCC[C@@H]1NC(=O)[C@H]1CCC[C@@H]1N [H12 YF]	3.62

src = paper PMC8162404
